From: ChEMBL document CHEMBL1156168

- Test Summary: Cytotoxicity against human MT2 cells by MTT assay
- Type: cell-based
- Measurement Setup: MT2 cells
Outcome Measure: CC50

Qu. Could you tell me which CC50 is on file for Cc1ccnc2c1NC(=O)c1cccnc1N2C1CC1 ?
Ans. > 100 µM

====

- Tested on: MT2
- Test Summary: Cytotoxicity against human MT2 cells by MTT assay
- Type: cell-based
- Measurement Setup: mt2
CC50 listing for selected compounds.
Just the number please, in µM, no unit attached.

OCCc1ccc(Nc2ncc(Cc3c(F)cccc3F)o2)cc1: 35

Qu. Could you tell me which CC50 is on file for Clc1cccc(Cl)c1Cc1nnc(Nc2ccc(COCc3ccoc3)cc2)o1 ?
Ans. 21

Qu. Could you tell me which CC50 is on file for Fc1cccc(F)c1Cc1cnc(Nc2ccc(Oc3ccncc3)c(Cl)c2)o1 ?
Ans. 21

Qu. Could you tell me which CC50 is on file for COCc1ccc(Nc2ncc(Cc3c(Cl)cccc3Cl)o2)cc1 ?
Ans. 8.1

Qu. Could you tell me which CC50 is on file for Clc1cccc(Cl)c1Cc1nnc(Nc2ccc(COCc3cccnc3)cc2)o1 ?
Ans. 81

Qu. Could you tell me which CC50 is on file for Fc1cccc(F)c1Cc1cnc(Nc2ccc(COc3ccncc3)c(Cl)c2)o1 ?
Ans. 3.8

Qu. Could you tell me which CC50 is on file for Fc1cccc(F)c1Cc1cnc(Nc2ccc(COCc3ccco3)cc2)o1 ?
Ans. 31

Qu. Could you tell me which CC50 is on file for COCc1ccc(Nc2nnc(Cc3c(Cl)cccc3Cl)o2)cc1 ?
Ans. 100
